Below: a set of entries, each annotated with reported log10 of IC50.
target: human α1G T-type channels (Homo sapiens); test: T-type calcium channel block, whole cell patch clamp (α1G); conditions: HEK cells stably expressing human α1G; mainly non-inactivated protocol; values above 10 μM represented as 10 μM, values below 0.30 μM represented as 0.30 μM
Note: values are log10 of IC50 expressed in nM.

O=C(C[C@H]1CC[C@H](NC(=O)[C@@H]2CCCCN2)CC1)Nc1cc(C(F)(F)F)cc(C(F)(F)F)c1 [Compound 120]    3.65
Cc1cccc(CN[C@H]2CC[C@@H](CNC(=O)c3cc(F)cc(C(F)(F)F)c3)CC2)c1O [Compound 18]    2.66
COC1CCC(N(C)C(=O)CN[C@H]2CC[C@H](CNC(=O)c3cc(C(F)(F)F)cc(C(F)(F)F)c3)CC2)CC1 (some centres unmarked) [Compound 65]    3.90

Ask | What log10 of IC50 value was documented for this molecule, Cc1ccc(NC(=O)CN[C@H]2CC[C@@H](CNC(=O)c3cc(C(F)(F)F)cc(C(F)(F)F)c3)CC2)nc1 [Compound 73] ?
Reply | 2.49

Ask | # repeat for O=C(NC[C@H]1CC[C@H](NCc2cccnc2F)CC1)c1cc(C(F)(F)F)cc(C(F)(F)F)c1 [Compound 27]
Reply | 3.29

Ask | Repeat for the following molecule: O=C(NC[C@H]1CC[C@@H](NCc2ccccc2O)CC1)c1cc(F)cc(C(F)(F)F)c1 [Compound 15]
Reply | 2.89

Ask | Again, but for Cc1ccc(-c2csc(NC(=O)C[C@H]3CC[C@@H](NC(=O)[C@@H]4C[C@H](c5ccccc5)CN4)CC3)n2)cc1 [Compound 130]
Reply | 3.61

Ask | Likewise for CC(C)(C)NC(=O)CN[C@H]1CC[C@H](CNC(=O)c2cc(Cl)cc(Cl)c2)CC1 [Compound 191] ?
Reply | 2.72

---

target: human α1G T-type channels (Homo sapiens, UniProt O43497); assay: T-type calcium channel block, whole cell patch clamp (α1G); conditions: HEK cells stably expressing human α1G; mainly non-inactivated protocol; values above 10 μM represented as 10 μM, values below 0.30 μM represented as 0.30 μM
Sequence (O43497 whole entry): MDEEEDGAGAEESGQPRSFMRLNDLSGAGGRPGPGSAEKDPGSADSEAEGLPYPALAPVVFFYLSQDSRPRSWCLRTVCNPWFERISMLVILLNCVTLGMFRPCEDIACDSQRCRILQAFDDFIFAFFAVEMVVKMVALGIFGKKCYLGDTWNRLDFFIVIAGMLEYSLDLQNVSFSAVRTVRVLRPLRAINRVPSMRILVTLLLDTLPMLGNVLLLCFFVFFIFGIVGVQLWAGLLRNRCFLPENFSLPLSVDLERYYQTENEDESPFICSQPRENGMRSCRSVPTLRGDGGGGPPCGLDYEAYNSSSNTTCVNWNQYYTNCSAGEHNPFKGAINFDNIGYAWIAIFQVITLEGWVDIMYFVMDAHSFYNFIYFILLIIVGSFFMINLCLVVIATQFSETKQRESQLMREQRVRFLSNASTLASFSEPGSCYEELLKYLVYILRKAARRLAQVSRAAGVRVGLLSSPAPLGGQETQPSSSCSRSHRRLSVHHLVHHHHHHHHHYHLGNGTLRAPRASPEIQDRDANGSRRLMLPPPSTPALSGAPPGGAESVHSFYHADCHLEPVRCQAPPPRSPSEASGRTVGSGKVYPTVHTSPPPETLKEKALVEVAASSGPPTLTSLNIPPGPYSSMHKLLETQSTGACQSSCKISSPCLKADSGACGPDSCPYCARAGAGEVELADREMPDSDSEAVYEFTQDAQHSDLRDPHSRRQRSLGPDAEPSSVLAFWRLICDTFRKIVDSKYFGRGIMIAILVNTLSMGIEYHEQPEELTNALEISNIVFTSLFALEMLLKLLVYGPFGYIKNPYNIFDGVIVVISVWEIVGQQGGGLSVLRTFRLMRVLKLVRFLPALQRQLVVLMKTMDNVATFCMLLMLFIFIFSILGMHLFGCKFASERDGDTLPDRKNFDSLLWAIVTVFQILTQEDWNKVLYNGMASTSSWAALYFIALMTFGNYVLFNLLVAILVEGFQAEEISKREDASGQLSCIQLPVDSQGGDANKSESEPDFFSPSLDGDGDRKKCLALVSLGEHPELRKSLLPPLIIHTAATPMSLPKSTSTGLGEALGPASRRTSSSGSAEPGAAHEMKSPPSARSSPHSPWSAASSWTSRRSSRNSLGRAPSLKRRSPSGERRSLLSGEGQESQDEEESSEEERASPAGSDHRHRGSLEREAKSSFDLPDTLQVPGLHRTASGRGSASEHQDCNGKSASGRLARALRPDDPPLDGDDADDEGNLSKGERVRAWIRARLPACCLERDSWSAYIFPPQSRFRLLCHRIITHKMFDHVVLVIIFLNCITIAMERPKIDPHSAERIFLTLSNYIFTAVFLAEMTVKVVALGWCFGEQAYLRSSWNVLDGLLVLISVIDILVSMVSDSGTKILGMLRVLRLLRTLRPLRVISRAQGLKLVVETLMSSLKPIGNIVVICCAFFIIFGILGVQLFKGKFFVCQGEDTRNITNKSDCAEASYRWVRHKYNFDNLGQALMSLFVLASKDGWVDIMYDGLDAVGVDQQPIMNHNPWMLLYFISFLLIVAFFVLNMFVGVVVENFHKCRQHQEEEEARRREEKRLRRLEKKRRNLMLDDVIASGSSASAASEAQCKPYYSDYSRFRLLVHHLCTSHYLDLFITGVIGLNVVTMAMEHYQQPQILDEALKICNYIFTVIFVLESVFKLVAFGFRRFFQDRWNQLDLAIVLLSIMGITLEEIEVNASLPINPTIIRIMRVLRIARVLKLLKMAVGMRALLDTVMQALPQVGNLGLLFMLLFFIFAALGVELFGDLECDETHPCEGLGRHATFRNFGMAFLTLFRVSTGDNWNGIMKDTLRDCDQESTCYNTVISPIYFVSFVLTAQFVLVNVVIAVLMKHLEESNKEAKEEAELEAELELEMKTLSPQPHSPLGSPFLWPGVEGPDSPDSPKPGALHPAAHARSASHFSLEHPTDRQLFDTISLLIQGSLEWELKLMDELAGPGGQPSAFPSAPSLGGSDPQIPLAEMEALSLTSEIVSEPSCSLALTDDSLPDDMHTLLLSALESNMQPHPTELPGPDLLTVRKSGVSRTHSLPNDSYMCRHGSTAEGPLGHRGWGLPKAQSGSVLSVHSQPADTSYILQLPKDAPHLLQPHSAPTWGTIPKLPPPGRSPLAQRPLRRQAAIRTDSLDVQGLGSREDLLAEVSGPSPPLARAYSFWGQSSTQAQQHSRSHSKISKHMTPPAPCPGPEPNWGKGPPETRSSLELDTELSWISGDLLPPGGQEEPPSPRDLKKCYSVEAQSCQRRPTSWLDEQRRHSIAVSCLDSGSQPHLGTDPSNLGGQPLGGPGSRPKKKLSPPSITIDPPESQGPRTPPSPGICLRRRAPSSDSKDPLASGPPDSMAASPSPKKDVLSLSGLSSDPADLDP
pIC50: recorded values
Lab note: report pIC50 as minus log10 of the concentration in molar units, number only.

Below are worked cases with known answers.
O=C(C[C@H]1CC[C@@H](NC(=O)[C@H]2CCCN2)CC1)Nc1cc(C(F)(F)F)cc(C(F)(F)F)c1 [Compound 146]    5.55
O=C(NC[C@H]1CC[C@@H](NCc2c(F)cccc2Cl)CC1)c1cc(F)cc(C(F)(F)F)c1 [Compound 23]    6.04
CC(C)(O)CN[C@H]1CC[C@H](CNC(=O)c2cc(C(F)(F)F)cc(C(F)(F)F)c2)CC1 [Compound 4]    5.34
NC1(C(=O)N[C@H]2CC[C@@H](CC(=O)Nc3cc(C(F)(F)F)cc(C(F)(F)F)c3)CC2)CC1 [Compound 149]    5.39
CC(C)(C)NC(=O)CN[C@H]1CC[C@H](CNC(=O)c2cccc(OC(F)(F)F)c2)CC1 [Compound 189]    5.44

Now look at this entry.
Ask | // lookup pIC50 | system=human α1G T-type channels (Homo sapiens, UniProt O43497) | key= O=C(NC[C@H]1CC[C@@H](NCc2cccnc2F)CC1)c1cc(C(F)(F)F)cc(C(F)(F)F)c1 [Compound 8]
Reply | 5.47
